test system: Staphylococcus saprophyticus; assay: Antibacterial activity against Staphylococcus saprophyticus ATCC BAA 750 assessed as inhibition of bacterial growth; type: functional
Recorded MIC for the following molecules

{"SMILES INPUT": "CCCC[C@@H]1NC(=O)[C@H](C)NC(=O)[C@H](NC(=O)[C@H](CO)NC(=O)[C@@H](NC(=O)[C@H](NC(=O)[C@@H](CCC(N)=O)NC(=O)[C@H](CO)NC(=O)[C@@H](NC(=O)[C@@H](Cc2ccccc2)NC)[C@@H](C)CC)[C@@H](C)CC)[C@@H](C)CC)[C@H](C)OC(=O)[C@H]([C@@H](C)CC)NC1=O", "OP": "=", "MIC [µg/mL]": 0.063}
{"SMILES INPUT": "CCC[C@@H]1NC(=O)[C@H](CCCNC(=N)N)NC(=O)[C@H](NC(=O)[C@H](CO)NC(=O)[C@@H](NC(=O)[C@H](NC(=O)[C@@H](CCC(N)=O)NC(=O)[C@H](CO)NC(=O)[C@@H](NC(=O)[C@@H](Cc2ccccc2)NC)[C@@H](C)CC)[C@@H](C)CC)[C@@H](C)CC)[C@H](C)OC(=O)[C@H]([C@@H](C)CC)NC1=O", "OP": "=", "MIC [µg/mL]": 0.063}
{"SMILES INPUT": "CC[C@H](C)[C@H](NC(=O)[C@@H](Cc1ccccc1)NC)C(=O)N[C@@H](CCCNC(=N)N)C(=O)N[C@H](CCC(N)=O)C(=O)N[C@@H](C(=O)N[C@H](C(=O)N[C@@H](CO)C(=O)N[C@H]1C(=O)N[C@@H](C)C(=O)N[C@@H](C2CCCCC2)C(=O)N[C@@H]([C@@H](C)CC)C(=O)O[C@H]1C)[C@@H](C)CC)[C@@H](C)CC", "OP": "=", "MIC [µg/mL]": 0.063}
{"SMILES INPUT": "CC[C@H](C)[C@H](NC(=O)[C@@H](Cc1ccccc1)NC)C(=O)N[C@@H](CO)C(=O)N[C@H](CCCNC(=N)N)C(=O)N[C@@H](C(=O)N[C@H](C(=O)N[C@@H](CO)C(=O)N[C@H]1C(=O)N[C@@H](CCCNC(=N)N)C(=O)N[C@@H](C2CCCCC2)C(=O)N[C@@H]([C@@H](C)CC)C(=O)O[C@H]1C)[C@@H](C)CC)[C@@H](C)CC", "OP": "=", "MIC [µg/mL]": 0.125}
{"SMILES INPUT": "CCC[C@@H]1NC(=O)[C@H](CCCNC(=N)N)NC(=O)[C@H](NC(=O)[C@H](CO)NC(=O)[C@@H](NC(=O)[C@H](NC(=O)[C@@H](CCCNC(=N)N)NC(=O)[C@H](CO)NC(=O)[C@@H](NC(=O)[C@@H](Cc2ccccc2)NC)[C@@H](C)CC)[C@@H](C)CC)[C@@H](C)CC)[C@H](C)OC(=O)[C@H]([C@@H](C)CC)NC1=O", "OP": "=", "MIC [µg/mL]": 0.063}
{"SMILES INPUT": "CC[C@H](C)[C@H](NC(=O)[C@@H](Cc1ccccc1)NC)C(=O)N[C@@H](CCCNC(=N)N)C(=O)N[C@H](CCC(N)=O)C(=O)N[C@@H](C(=O)N[C@H](C(=O)N[C@@H](CO)C(=O)N[C@H]1C(=O)N[C@@H](CCCNC(=N)N)C(=O)N[C@@H](C2CCCCC2)C(=O)N[C@@H]([C@@H](C)CC)C(=O)O[C@H]1C)[C@@H](C)CC)[C@@H](C)CC", "OP": "<", "MIC [µg/mL]": 0.063}

Taken from ChEMBL document CHEMBL5634143.
